From: PubChem BioAssay (Tox21)

- Procedure Text: qHTS assay to identify small molecule antagonists of the constitutive androstane receptor (CAR) signaling pathway - cell viability counter screen (AID 1224837); note: nearly all actives have a fitted effect of over 45% in size
- Condition Details: HepG2-CYP2B6-hCAR viability, CellTiter-Fluor, 23 h, co-treated with 50 nM CITCO; series mostly up to 92.4 µM
Results filed as inconclusive are left out. Active and inactive are the calls of the source. Calls come from the whole dose curve; as a rule, active = well fitted cell-killing curve with a large enough effect in the repeat runs; inconclusive = weak or mixed curves, or effect the other way; inactive = flat fitted curve, though single readings scatter.
Pick one: active, inactive

## Input Dear all, I need the recorded test outcome for COc1cc(C(=O)NCCCCCC(=O)O)cc(OC)c1OC , thank you.
## Output inactive

Others:
## Input Dear all, I need the recorded test outcome for C(=C\c1ccccc1)/c1ccccc1 , thank you.
## Output inactive

## Input Dear all, I need the recorded test outcome for CC=C(Cl)Cl , thank you.
## Output inactive
